Where do these numbers come from? They come from BindingDB's records for patent US11021481.

# maps each entry to its pIC50
Biological target: Mitogen-activated protein kinase kinase kinase kinase 1 (Homo sapiens, UniProt Q92918)
Sequence (Q92918 whole entry): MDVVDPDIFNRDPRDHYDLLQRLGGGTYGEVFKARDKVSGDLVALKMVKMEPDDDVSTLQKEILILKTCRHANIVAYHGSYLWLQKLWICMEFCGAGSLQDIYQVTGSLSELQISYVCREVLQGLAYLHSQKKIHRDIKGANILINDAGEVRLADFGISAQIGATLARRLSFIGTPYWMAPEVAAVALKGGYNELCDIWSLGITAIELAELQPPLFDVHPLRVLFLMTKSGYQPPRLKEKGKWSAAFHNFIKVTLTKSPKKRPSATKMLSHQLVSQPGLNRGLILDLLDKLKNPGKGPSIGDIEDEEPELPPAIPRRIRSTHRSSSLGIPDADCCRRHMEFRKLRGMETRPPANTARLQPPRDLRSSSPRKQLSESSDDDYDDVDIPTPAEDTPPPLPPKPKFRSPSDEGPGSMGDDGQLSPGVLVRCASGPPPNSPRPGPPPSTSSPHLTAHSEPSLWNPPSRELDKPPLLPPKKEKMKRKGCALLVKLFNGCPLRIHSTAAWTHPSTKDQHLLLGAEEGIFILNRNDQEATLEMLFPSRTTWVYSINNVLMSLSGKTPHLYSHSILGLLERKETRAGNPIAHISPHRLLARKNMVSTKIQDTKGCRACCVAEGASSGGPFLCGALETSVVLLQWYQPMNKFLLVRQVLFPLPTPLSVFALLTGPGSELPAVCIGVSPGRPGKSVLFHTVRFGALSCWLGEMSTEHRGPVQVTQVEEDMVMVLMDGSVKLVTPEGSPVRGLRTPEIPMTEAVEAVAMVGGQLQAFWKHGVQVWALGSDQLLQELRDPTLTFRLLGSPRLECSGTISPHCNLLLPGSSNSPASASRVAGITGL
Experiment: Biochemical Enzyme Assay
pIC50: −log10 of the molar value.

Consider the worked cases shown below.
>>> print(df.to_string())
                                   molecule  recordedvalue
0  COCC1(O)CCN(c2ccc(Nc3ccc(-c4ccnc5c4ccn5C)c4c3C(=O)NC4)nc2CN(C)C)CC1         > 7.00
1  CN(C)Cc1nc(Nc2cnc(-c3cccc4c3ccn4C)c3c2C(=O)NC3)ccc1O[C@@H]1CCOC1         > 7.00
2  CN1CC(O)(C2CCCN(c3ccc(Nc4ccc(C5=CNC6C=C(F)C=CN56)c5c4C(=O)NC5)nc3)C2)C1 (centres undefined)         > 7.00
3  CN1CCN(c2nc(Nc3ccc(-c4cnc5cc(F)ccn45)c4c3C(=O)NC4)cnc2[C@@H]2CCOC2)CC1         > 7.00
4  Cc1ccnn2c(-c3ncc(Nc4ccc(C5CCOC5)c(CN(C)C)n4)c4c3CNC4=O)cnc12 (centres undefined)         > 7.00

Can you share its pIC50? I mean this molecule: "CNC1CN(c2cccc(Nc3cnc(-c4ccnc5c4ccn5C)c4c3C(=O)NC4)c2)C1"
> 7.00

// same read-out, input: Cc1ccn2c(-c3ccc(Nc4ccc(C5CCOC5)c(CN(C)C)n4)c4c3CNC4=O)cnc2c1 (centres undefined)
> 7.00

// same read-out, input: "O=C1NCc2c(-c3cnc4ccccn34)ccc(Cc3ccn(C4CCOCC4)n3)c21"
< 6.00

// same read-out, input: Cn1ccc2c1N=CNC2c1ccc(Nc2ccc(N3CCC(O)CC3)cn2)c2c1CNC2=O (centres undefined)
> 7.00
